Below, each of the substances is paired with its reported Inhibition rate of each cytokine compared to CD150-stimulated EBV-t B cells (%) IL-12A value.
Test system: IL-12A
Assay: Reduction of IL-12A secretion in activated B cells (ELISA)
Assay type: cell-based
Settings: 100 ng/me of peptide; EBV-infected B cells stimulated with anti-CD150; ELISA of culture supernatant
Experimental: In order to determine the activity of the novel peptides synthesized in Example 1 for reducing the secretion of inflammatory cytokines, the activated pathogenic B cells were treated with each of the 18 types of synthesized novel peptides and the reduction in secretion of inflammatory cytokines from the B cells was monitored. […]
Form entry: value (%) — number only.

Example cases with answers are listed next.
>  <SUBSTANCE>
PSPRDG (SIS-1#5 peptide)

>  <SYSTEM_NAME>
IL-12A

>  <NUMBER>
8.9

$$$$
>  <SUBSTANCE>
RDGRTDGRTD (SIS-1#8 peptide)

>  <SYSTEM_NAME>
IL-12A

>  <NUMBER>
19.2

$$$$
>  <SUBSTANCE>
PSPRDGRTDG (SIS-1#6 peptide)

>  <SYSTEM_NAME>
IL-12A

>  <NUMBER>
30.8

$$$$
>  <SUBSTANCE>
MSLPSPRDGRTDGRTDCTR (SIS-1 peptide)

>  <SYSTEM_NAME>
IL-12A

>  <NUMBER>
43.5

$$$$
>  <SUBSTANCE>
RTDCTR (SIS-1#3 peptide)

>  <SYSTEM_NAME>
IL-12A

>  <NUMBER>
19.4

$$$$

# query: Inhibition rate of each cytokine compared to CD150-stimulated EBV-t B cells (%) IL-12A of entry DGRTDG (SIS-1#9 peptide) 20.8

Please answer likewise for MSLPSP (SIS-1#1 peptide) 19.8

Thanks! And RDGRTD (SIS-1#17 peptide) ? 16.0

What do we get for MSLPSPRDGRTDG (SIS-1#4 peptide) ? 33.9

Repeat for the following substance: RDGRTDG (SIS-1#2 peptide) 30.1

###

Tested on: IL-2
Assay: Reduction of IL-2 secretion in activated B cells (ELISA)
Assay type: cell-based
Details: 100 ng/me of peptide; EBV-infected B cells stimulated with anti-CD150; ELISA of culture supernatant
Procedure: In order to determine the activity of the novel peptides synthesized in Example 1 for reducing the secretion of inflammatory cytokines, the activated pathogenic B cells were treated with each of the 18 types of synthesized novel peptides and the reduction in secretion of inflammatory cytokines from the B cells was monitored. […]
ENDPOINT: Inhibition rate of each cytokine compared to CD150-stimulated EBV-t B cells (%) IL-2
A number alone suffices; assume %.

Previously resolved entries follow.
>  <SUBSTANCE>
MSLPSP (SIS-1#1 peptide)

>  <SYSTEM_NAME>
IL-2

>  <UNIT_ABBREV>
%

>  <NUMBER>
13.5

$$$$
>  <SUBSTANCE>
MSLPSPRDGRTDGRTDCTR (SIS-1 peptide)

>  <SYSTEM_NAME>
IL-2

>  <UNIT_ABBREV>
%

>  <NUMBER>
19.7

$$$$
>  <SUBSTANCE>
RDGRTDGRTD (SIS-1#8 peptide)

>  <SYSTEM_NAME>
IL-2

>  <UNIT_ABBREV>
%

>  <NUMBER>
33.0

$$$$
>  <SUBSTANCE>
RDGRTDG (SIS-1#2 peptide)

>  <SYSTEM_NAME>
IL-2

>  <UNIT_ABBREV>
%

>  <NUMBER>
15.1

$$$$
>  <SUBSTANCE>
RTDCTR (SIS-1#3 peptide)

>  <SYSTEM_NAME>
IL-2

>  <UNIT_ABBREV>
%

>  <NUMBER>
12.3

$$$$

Need Inhibition rate of each cytokine compared to CD150-stimulated EBV-t B cells (%) IL-2, item PSPRDG (SIS-1#5 peptide) 6.8

Proceed to PSPRDGRTDG (SIS-1#6 peptide) 23.1
